Test: First-in-human clinical study: plasma and whole blood PK of INX-315 (oral QD, ASD tablet)
Type: in vivo
Conditions: human, plasma, oral, 200 mg, 200 mg QD (n = 2), […]; read-out: Mean plasma concentration
Quantity name: concentration at 24 h (ng/mL)
Numeric answer only, unit ng/mL assumed.

Identify measured concentration at 24 h associated with NS(=O)(=O)c1ccc(Nc2ncc3cc4n(c3n2)C2(CCCCC2)C(=O)NN4)cc1
141

====

Experiment: First-in-human clinical study: plasma and whole blood PK of INX-315 (oral QD, ASD tablet)
Assay type: in vivo
Details: human, plasma, po, 100 mg, plasma, 100 mg QD cohort, Day 15, median; read-out: AUClast, Median
Quantity name: AUC(0-t) (ng·h/mL)
Numeric answer only, unit ng·h/mL assumed.

Identify measured AUC(0-t) associated with NS(=O)(=O)c1ccc(Nc2ncc3cc4n(c3n2)C2(CCCCC2)C(=O)NN4)cc1 [INX-315]
3120
